Test Method Notes: Pharmacokinetic assay in Balb/c mice (plasma and brain tissue)
Assay type: in vivo
Stated Conditions: mouse, po; plasma, 5 mg/kg p.o., male Balb/c mice; read-out: Half-life t1/2 (converted)
Parameter Measured: half-life (h)

> print(dat)
                                   compound  parameter.measured  unit.of.measure  numeric.result
1  C[C@@]1(O)CC[C@H]2[C@H](CC[C@@H]3[C@@H]2CC[C@]2(C)C(C(=O)Cn4cc(C#N)cn4)C[C@@H](C4CC4)[C@@H]32)C1 (some centres unmarked)           half-life                h            2.04
2  C[C@@]1(O)CC[C@H]2[C@H](CC[C@@H]3[C@@H]2CC[C@@]2(C)[C@H]3[C@H](C3CC3)C[C@@H]2C(=O)Cn2ccnn2)C1           half-life                h            1.75
3  C[C@@H]1C[C@H](C(=O)Cn2cc(C#N)c(Cl)n2)[C@@]2(C)CC[C@H]3[C@@H](CC[C@@H]4C[C@](C)(O)CC[C@@H]43)[C@H]12           half-life                h            1.78
4  C[C@@]1(O)CC[C@H]2[C@H](CC[C@@H]3[C@@H]2CC[C@@]2(C)[C@H]3[C@H](C3CC3)C[C@@H]2C(=O)Cn2nc(C#N)cc2C#N)C1           half-life                h             1.7
5  CC[C@@H]1C[C@H](C(=O)Cn2nccn2)[C@@]2(C)CC[C@H]3[C@@H](CC[C@@H]4C[C@](C)(O)CC[C@@H]43)[C@H]12           half-life                h            1.35

* * *

Test Method Notes: Pharmacokinetic assay in Balb/c mice (plasma and brain tissue)
Type: in vivo
Stated Conditions: mouse, po; plasma, 5 mg/kg p.o., male Balb/c mice; read-out: Area under curve AUC0-t
Parameter Measured: AUC(0-t) (ng·h/mL)

> print(dat)
                                    molecule  numeric.result
 1  CC[C@@H]1C[C@H](C(=O)Cn2ccnn2)[C@@]2(C)CC[C@H]3[C@@H](CC[C@@H]4C[C@](C)(O)CC[C@@H]43)[C@H]12            5980
 2  C[C@@H]1C[C@H](C(=O)Cn2cc(C#N)cn2)[C@@]2(C)CC[C@H]3[C@@H](CC[C@@H]4C[C@](C)(O)CC[C@@H]43)[C@H]12            5060
 3  C[C@@H]1C[C@H](C(=O)Cn2ncnn2)[C@@]2(C)CC[C@H]3[C@@H](CC[C@@H]4C[C@](C)(O)CC[C@@H]43)[C@H]12             599
 4  C[C@@]1(O)CC[C@H]2[C@H](CC[C@@H]3[C@@H]2CC[C@]2(C)C(C(=O)Cn4cc(C#N)cn4)C[C@@H](C4CC4)[C@@H]32)C1 (stereo partly shown)            1580
 5  Cc1nnn(CC(=O)[C@H]2C[C@@H](C3CC3)[C@H]3[C@@H]4CC[C@@H]5C[C@](C)(O)CC[C@@H]5[C@H]4CC[C@@]32C)n1            7160
 6  C[C@@]1(O)CC[C@H]2[C@H](CC[C@@H]3[C@@H]2CC[C@@]2(C)[C@H]3[C@H](C3CC3)C[C@@H]2C(=O)Cn2ccnn2)C1           13400
 7  C[C@@]1(O)CC[C@H]2[C@H](CC[C@@H]3[C@@H]2CC[C@@]2(C)[C@H]3[C@H](C3CC3)C[C@@H]2C(=O)Cn2ncnn2)C1            7790
 8  C[C@@]1(O)CC[C@H]2[C@H](CC[C@@H]3[C@@H]2CC[C@@]2(C)[C@H]3[C@@H]3C[C@@H]3[C@@H]2C(=O)Cn2ccc(C(F)(F)F)n2)C1             409
 9  C[C@@H]1C[C@H](C(=O)Cn2nccn2)[C@@]2(C)CC[C@H]3[C@@H](CC[C@@H]4C[C@](C)(O)CC[C@@H]43)[C@H]12             588
10  CC[C@@H]1C[C@H](C(=O)Cn2nccn2)[C@@]2(C)CC[C@H]3[C@@H](CC[C@@H]4C[C@](C)(O)CC[C@@H]43)[C@H]12            3550
11  CC[C@@H]1C[C@H](C(=O)Cn2cc(C#N)cn2)[C@@]2(C)CC[C@H]3[C@@H](CC[C@@H]4C[C@](C)(O)CC[C@@H]43)[C@H]12            4640
12  C[C@@]1(O)CC[C@H]2[C@H](CC[C@@H]3[C@@H]2CC[C@@]2(C)[C@H]3[C@H](C3CC3)C[C@@H]2C(=O)Cn2nccn2)C1            2430
13  C[C@@]1(O)CC[C@H]2[C@H](CC[C@@H]3[C@@H]2CC[C@@]2(C)[C@H]3[C@@H]3C[C@@H]3[C@@H]2C(=O)COc2cnc(C(F)(F)F)nc2)C1            1390
